Recorded values, source ChEMBL document CHEMBL3286210.

# measuredTarget: Free fatty acid receptor 1 (Rattus norvegicus, UniProt Q8K3T4)
# Sequence (Q8K3T4 whole entry): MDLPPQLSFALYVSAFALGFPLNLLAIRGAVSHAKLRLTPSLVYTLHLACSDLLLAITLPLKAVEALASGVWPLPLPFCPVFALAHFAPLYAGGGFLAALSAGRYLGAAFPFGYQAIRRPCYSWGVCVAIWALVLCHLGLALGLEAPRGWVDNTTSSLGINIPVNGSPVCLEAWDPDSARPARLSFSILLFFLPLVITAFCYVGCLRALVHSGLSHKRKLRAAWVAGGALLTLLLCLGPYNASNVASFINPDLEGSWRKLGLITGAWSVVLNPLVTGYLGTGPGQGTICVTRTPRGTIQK
# assayInfo: Agonist activity at rat GPR40 expressed in CHO cells by calcium flux assay
reportedMetric: log10 of EC50 (log10 of the value in nM)
Please note: log10 values; quantity EC50; unit nM.

Some entries whose results are on file:
compound: CCOC(CC(=O)O)c1ccc(OCc2ccccc2C)cc1 (stereo unspecified)
recordedNumber: 1.90
--
compound: Cc1cccc(C)c1-c1cccc(COc2ccc(CCC(=O)O)nn2)c1
recordedNumber: 2.49
--
compound: Cc1cccc(C)c1-c1cccc(COc2ccc(CCC(=O)O)nc2)c1
recordedNumber: 2.32
--
compound: Cc1cccc(C)c1-c1cccc(COc2ccc(CCC(=O)O)s2)c1
recordedNumber: 2.92
--
compound: CCOC(CC(=O)O)c1ccc(OCc2ccc(C)cc2)cc1 (stereo unspecified)
recordedNumber: 2.46

Task item: So what log10 of EC50 did Cc1cccc(C)c1-c1cccc(COc2ccc(CC(F)C(=O)O)cn2)c1 (stereo unspecified) get with Free fatty acid receptor 1 (Rattus norvegicus, UniProt Q8K3T4)?
Reply: 2.40

* * *

# assayInfo: Oral bioavailability in F344 rat at 3 mg/kg
# Format: ADME, organism-based
# testContext: in vivo
reportedMetric: bioavailability (%)
The reply should contain only the number, in %.

Task item: # query: bioavailability of entry CCOC(CC(=O)O)c1ccc(OCc2ccccc2C)cc1 (stereo unspecified)
Reply: 64

* * *

# assayInfo: Volume of distribution at steady state in F344 rat at 2 mg/kg, iv
# Format: ADME, organism-based
# Set-up: dose 2 mg/kg, route intravenous
# testContext: in vivo, read-out: Vdss
reportedMetric: Vd (L/kg)
# value in L/kg; strip the unit string

Task item: Reported Vd for CCOC(CC(=O)O)c1ccc(OCc2ccccc2C)cc1 (stereo unspecified) : what is it?
Reply: 0.16

* * *

# measuredTarget: Free fatty acid receptor 1 (Homo sapiens)
# Sequence (O14842 whole entry): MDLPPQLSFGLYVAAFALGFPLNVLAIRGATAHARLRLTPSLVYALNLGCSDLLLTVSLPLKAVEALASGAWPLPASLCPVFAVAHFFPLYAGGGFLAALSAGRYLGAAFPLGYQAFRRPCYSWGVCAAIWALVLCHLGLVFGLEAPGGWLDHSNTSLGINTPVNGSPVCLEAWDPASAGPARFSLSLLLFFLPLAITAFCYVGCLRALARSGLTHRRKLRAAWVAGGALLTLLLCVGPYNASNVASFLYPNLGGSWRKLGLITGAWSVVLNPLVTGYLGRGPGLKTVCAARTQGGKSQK
# assayInfo: Agonist activity at human GPR40 expressed in CHO cells by calcium flux assay
Quick reference for EC50 among some molecules
Value expressed in nM; do not type the unit.

Task item: Recorded EC50 for `Cc1cccc(C)c1-c1cccc(COc2ccc(CCC(=O)O)c(C)n2)c1` , please?
Reply: 81

Task item: Again, but for `Cc1cccc(C)c1-c1cccc(COc2ccc(CCC(=O)O)nc2)c1`
Reply: 71

Task item: Also CCOC(CC(=O)O)c1ccc(OCc2ccccc2)nc1 (configuration not stated) , if possible.
Reply: 230

Task item: What do you have for `Cc1cccc(C)c1-c1cccc(COc2cnc(CCC(=O)O)cn2)c1` ?
Reply: 3.8

Task item: Another molecule to look at: Cc1cccc(C)c1-c1cccc(COc2cc3c(cn2)C(CC(=O)O)OC3)c1 (configuration not stated)
Reply: 49

Task item: Consider next the molecule `Cc1cc(CCC(=O)O)cnc1OCc1cccc(-c2c(C)cccc2C)c1` in the same way.
Reply: 2500

Task item: And for Cc1cccc(C)c1-c1cccc(COc2ccc(C(C)CC(=O)O)cn2)c1 (configuration not stated) ?
Reply: 10
